From: PubChem BioAssay AID1963959

Measured viability, T/C of individual entries
Tested on: T-47D spheroids with HUVEC/MSC, viability
Test: Anticancer human tumor T-47D cell line growth inhibition [PI3K]
Settings: second compound 0.00316 µM; first compound 0.00316 µM; active compounds read low
Write the value in % as a bare number.

Molecule: CCN1CCN(Cc2ccc(Nc3ncc(F)c(-c4cc(F)c5nc(C)n(C(C)C)c5c4)n3)nc2)CC1 + CC(Nc1ccc2c(c1)OCCn1cc(N3C(=O)OCC3C(F)F)nc1-2)C(N)=O
Assay system: T-47D spheroids with HUVEC/MSC, viability
Unit name: %
viability, T/C: 107

Name the recorded viability, T/C of the item CC(C)n1nc(-c2ccc3oc(N)nc3c2)c2c(N)ncnc21 + COc1c(OCCCN2CCOCC2)ccc2c3n(c(=NC(=O)c4cnc(N)nc4)nc12)CCN3 in your answer.
106

Name the recorded viability, T/C of the item Cn1ncnc1[C@H]1c2n[nH]c(=O)c3cc(F)cc(c23)N[C@@H]1c1ccc(F)cc1 + CC(Nc1ccc2c(c1)OCCn1cc(N3C(=O)OCC3C(F)F)nc1-2)C(N)=O in your answer.
109

Name the recorded viability, T/C of the item CC(=O)c1c(C)c2cnc(Nc3ccc(N4CCNCC4)cn3)nc2n(C2CCCC2)c1=O + CC(Nc1ccc2c(c1)OCCn1cc(N3C(=O)OCC3C(F)F)nc1-2)C(N)=O in your answer.
82.9

Name the recorded viability, T/C of the item CCN1CCN(Cc2ccc(Nc3ncc(F)c(-c4cc(F)c5nc(C)n(C(C)C)c5c4)n3)nc2)CC1 + COc1c(OCCCN2CCOCC2)ccc2c3n(c(=NC(=O)c4cnc(N)nc4)nc12)CCN3 in your answer.
81.5

Name the recorded viability, T/C of the item CC(C)n1nc(-c2ccc3oc(N)nc3c2)c2c(N)ncnc21 + CC(Nc1ccc2c(c1)OCCn1cc(N3C(=O)OCC3C(F)F)nc1-2)C(N)=O in your answer.
110

Name the recorded viability, T/C of the item Cn1ncnc1[C@H]1c2n[nH]c(=O)c3cc(F)cc(c23)N[C@@H]1c1ccc(F)cc1 + COc1c(OCCCN2CCOCC2)ccc2c3n(c(=NC(=O)c4cnc(N)nc4)nc12)CCN3 in your answer.
112

Name the recorded viability, T/C of the item CC(=O)c1c(C)c2cnc(Nc3ccc(N4CCNCC4)cn3)nc2n(C2CCCC2)c1=O + COc1c(OCCCN2CCOCC2)ccc2c3n(c(=NC(=O)c4cnc(N)nc4)nc12)CCN3 in your answer.
95.3

###

System: T-47D spheroids with HUVEC/MSC, viability
Assay: Anticancer human tumor T-47D cell line growth inhibition [PI3K];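 note: spheroids exposed to agents for seven days before reading; percent of DMSO vehicle control luminescence so 100% = untreated growth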
Settings: second compound 0.316 µM; first compound 0.949 µM; active compounds read low
Quantity measured: viability, T/C (%)
Write the value in % as a bare number.

The following compounds have reported results that may help.
Compound: Cn1cnc2c(F)c(Nc3ccc(Br)cc3Cl)c(C(=O)NOCCO)cc21 + Cc1nc(NC(=O)N2CCCC2C(N)=O)sc1-c1ccnc(C(C)(C)C(F)(F)F)c1
viability, T/C [%]: 95.5

Compound: Cn1cnc2c(F)c(Nc3ccc(Br)cc3Cl)c(C(=O)NOCCO)cc21 + COc1c(OCCCN2CCOCC2)ccc2c3n(c(=NC(=O)c4cnc(N)nc4)nc12)CCN3
viability, T/C [%]: 20.4

Compound: Cn1cnc2c(F)c(Nc3ccc(Br)cc3Cl)c(C(=O)NOCCO)cc21 + CC(Nc1ncnc2nc[nH]c12)c1cc2cccc(Cl)c2c(=O)n1-c1ccccc1
viability, T/C [%]: 82

Please find the next compound below.
Provide viability, T/C, recorded with T-47D spheroids with HUVEC/MSC, viability, of Cn1cnc2c(F)c(Nc3ccc(Br)cc3Cl)c(C(=O)NOCCO)cc21 + CC(Nc1ccc2c(c1)OCCn1cc(N3C(=O)OCC3C(F)F)nc1-2)C(N)=O
71.8

###

System: T-47D spheroids with HUVEC/MSC, viability
Assay: Anticancer human tumor T-47D cell line growth inhibition [PI3K];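 note: spheroids exposed to agents for seven days before reading; percent of DMSO vehicle control luminescence so 100% = untreated growth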
Conditions: second compound 0.316 µM; first compound 0.1 µM; active compounds read low
Measured viability, T/C of individual entries
Write the value in % as a bare number.

The following compounds have reported results that may help.
Compound: Cn1ncc(Cl)c1-c1cc(C(=O)NC(CN)Cc2cccc(F)c2)sc1Cl (stereo not drawn) + Cc1nc(NC(=O)N2CCCC2C(N)=O)sc1-c1ccnc(C(C)(C)C(F)(F)F)c1
Assay system: T-47D spheroids with HUVEC/MSC, viability
Unit name: %
viability, T/C: 69.8

Compound: CC(C)NCC(C(=O)N1CCN(c2ncnc3c2C(C)CC3O)CC1)c1ccc(Cl)cc1 (stereo not drawn) + COc1c(OCCCN2CCOCC2)ccc2c3n(c(=NC(=O)c4cnc(N)nc4)nc12)CCN3
Assay system: T-47D spheroids with HUVEC/MSC, viability
Unit name: %
viability, T/C: 18.4

Please find the next compound below.
Name the recorded viability, T/C of the item C#Cc1c(F)ccc2cc(O)cc(-c3ncc4c(N5CC6CCC(C5)N6)nc(OCC56CCCN5CC(F)C6)nc4c3F)c12 (stereo not drawn) + CC(Nc1ccc2c(c1)OCCn1cc(N3C(=O)OCC3C(F)F)nc1-2)C(N)=O in your answer.
70.7

###

Measured viability, T/C of individual entries
System: T-47D spheroids with HUVEC/MSC, viability
Assay: Anticancer human tumor T-47D cell line growth inhibition [PI3K];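 note: spheroids exposed to agents for seven days before reading; percent of DMSO vehicle control luminescence so 100% = untreated growth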
Settings: second compound 0.0316 µM; first compound 0.0316 µM; active compounds read low
Write the value in % as a bare number.

The following molecules have reported results that may help.
Molecule: C=CC(=O)N1CCN(c2nc(=O)n(-c3c(C)ccnc3C(C)C)c3nc(-c4c(O)cccc4F)c(F)cc23)C(C)C1 (configuration not stated) + CC(Nc1ncnc2nc[nH]c12)c1cc2cccc(Cl)c2c(=O)n1-c1ccccc1
Assay system: T-47D spheroids with HUVEC/MSC, viability
Measured value: 98.2
--
Molecule: C=CC(=O)N1CCN(c2nc(=O)n(-c3c(C)ccnc3C(C)C)c3nc(-c4c(O)cccc4F)c(F)cc23)C(C)C1 (configuration not stated) + Cc1nc(NC(=O)N2CCCC2C(N)=O)sc1-c1ccnc(C(C)(C)C(F)(F)F)c1
Assay system: T-47D spheroids with HUVEC/MSC, viability
Measured value: 112
--
Molecule: CC1(C)CCC(Nc2ncc(C(F)(F)F)c(-c3c[nH]c4c(P(C)(C)=O)c(C#N)ccc34)n2)CN1 (configuration not stated) + CC(Nc1ccc2c(c1)OCCn1cc(N3C(=O)OCC3C(F)F)nc1-2)C(N)=O
Assay system: T-47D spheroids with HUVEC/MSC, viability
Measured value: 65.4
--
Molecule: CC(C)n1nc(-c2ccc3oc(N)nc3c2)c2c(N)ncnc21 + CC(Nc1ncnc2nc[nH]c12)c1cc2cccc(Cl)c2c(=O)n1-c1ccccc1
Assay system: T-47D spheroids with HUVEC/MSC, viability
Measured value: 90
--
Molecule: CC1(C)CCC(CN2CCN(c3ccc(C(=O)NS(=O)(=O)c4ccc(NCC5CCOCC5)c([N+](=O)[O-])c4)c(Oc4cnc5[nH]ccc5c4)c3)CC2)=C(c2ccc(Cl)cc2)C1 + CC(Nc1ncnc2nc[nH]c12)c1cc2cccc(Cl)c2c(=O)n1-c1ccccc1
Assay system: T-47D spheroids with HUVEC/MSC, viability
Measured value: 120
--
Molecule: CC1(C)CCC(Nc2ncc(C(F)(F)F)c(-c3c[nH]c4c(P(C)(C)=O)c(C#N)ccc34)n2)CN1 (configuration not stated) + COc1c(OCCCN2CCOCC2)ccc2c3n(c(=NC(=O)c4cnc(N)nc4)nc12)CCN3
Assay system: T-47D spheroids with HUVEC/MSC, viability
Measured value: 44.3

Please find the next molecule below.
Name the recorded viability, T/C of the item C[C@@H](NC(=O)c1ncnc(N)c1Cl)c1ncc(C(=O)Nc2cc(C(F)(F)F)c(Cl)cn2)s1 + CC(Nc1ccc2c(c1)OCCn1cc(N3C(=O)OCC3C(F)F)nc1-2)C(N)=O in your answer.
95.2

###

Test system: T-47D spheroids with HUVEC/MSC, viability
Experiment: Anticancer human tumor T-47D cell line growth inhibition [PI3K];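 note: spheroids exposed to agents for seven days before reading; percent of DMSO vehicle control luminescence so 100% = untreated growth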
Conditions: second compound 0.01 µM; first compound 3.16 µM; active compounds read low
Quantity measured: viability, T/C (%)
Write the value in % as a bare number.

The following compounds have reported results that may help.
Compound: C[C@@H](NC(=O)c1ncnc(N)c1Cl)c1ncc(C(=O)Nc2cc(C(F)(F)F)c(Cl)cn2)s1 + COc1c(OCCCN2CCOCC2)ccc2c3n(c(=NC(=O)c4cnc(N)nc4)nc12)CCN3
Assay system: T-47D spheroids with HUVEC/MSC, viability
Unit name: %
Measured value: 86.1
--
Compound: CNC(=O)c1ccc(N2C(=S)N(c3ccc(C#N)c(C(F)(F)F)c3)C(=O)C2(C)C)cc1F + COc1c(OCCCN2CCOCC2)ccc2c3n(c(=NC(=O)c4cnc(N)nc4)nc12)CCN3
Assay system: T-47D spheroids with HUVEC/MSC, viability
Unit name: %
Measured value: 81.3
--
Compound: Cn1nccc1Nc1nccc(-c2ccn(C(CO)c3ccc(Cl)c(F)c3)c(=O)c2)n1 (configuration not stated) + COc1c(OCCCN2CCOCC2)ccc2c3n(c(=NC(=O)c4cnc(N)nc4)nc12)CCN3
Assay system: T-47D spheroids with HUVEC/MSC, viability
Unit name: %
Measured value: 103
--
Compound: CC(Cn1ccc(-c2ccc(C#N)c(Cl)c2)n1)NC(=O)c1cc(C(C)O)[nH]n1 (configuration not stated) + COc1c(OCCCN2CCOCC2)ccc2c3n(c(=NC(=O)c4cnc(N)nc4)nc12)CCN3
Assay system: T-47D spheroids with HUVEC/MSC, viability
Unit name: %
Measured value: 95.4
--
Compound: C[C@@H](NC(=O)c1ncnc(N)c1Cl)c1ncc(C(=O)Nc2cc(C(F)(F)F)c(Cl)cn2)s1 + CC(Nc1ccc2c(c1)OCCn1cc(N3C(=O)OCC3C(F)F)nc1-2)C(N)=O
Assay system: T-47D spheroids with HUVEC/MSC, viability
Unit name: %
Measured value: 113
--
Compound: C=CC(=O)N1CCN(c2nc(=O)n(-c3c(C)ccnc3C(C)C)c3nc(-c4c(O)cccc4F)c(F)cc23)C(C)C1 (configuration not stated) + CC(Nc1ccc2c(c1)OCCn1cc(N3C(=O)OCC3C(F)F)nc1-2)C(N)=O
Assay system: T-47D spheroids with HUVEC/MSC, viability
Unit name: %
Measured value: 99.9

Please find the next compound below.
Name the recorded viability, T/C of the item CC1(C)CCC(Nc2ncc(C(F)(F)F)c(-c3c[nH]c4c(P(C)(C)=O)c(C#N)ccc34)n2)CN1 (configuration not stated) + CC(Nc1ccc2c(c1)OCCn1cc(N3C(=O)OCC3C(F)F)nc1-2)C(N)=O in your answer.
82.4
